- System: Rattus norvegicus
- assay_details: Antihyperglycemic activity in Charles Foster-Wistar albino rat sucrose loaded model assessed as decrease of blood glucose level at 100 mg/kg, po administered 30 mins before glucose challenge measured up to 120 mins by glucometer
- Type: functional
- Set-up: scale not given: the % may be the effect or the level left
- condition_description: in the assay text read “Sprague-Dawley” for “Charles Foster-Wistar”
The following compounds are listed with their measured Activity values.

compound | Activity (%)
Cc1ccc(C2=CC(c3ccccc3)C3=C(CCCC3=O)N2)cc1 (stereo not given) | 13.4
O=C1CCCC2=C1C(c1ccc(Cl)cc1)C=C(c1ccccc1)N2 (stereo not given) | 24.7
COc1ccc(C2=CC(c3ccccc3)C3=C(CC(C)(C)CC3=O)N2)cc1 (stereo not given) | 17.3
CCOC(=O)C1=CC(c2ccc(Br)cc2)C2=C(CC(C)(C)CC2=O)N1 (stereo not given) | 11.4
O=C1CCCC2=C1C(c1ccc(F)cc1)C=C(c1ccccc1)N2 (stereo not given) | 34.5
